target: eOD-GT8 (monomeric ligand) (Human immunodeficiency virus 1, …)
QUANTITY: pKd
Lab note — pKd values are minus log10 of concentrations in M.

>>> numeric_result("g28v2-D58-9_CLK09 (antibody, V domains shown) VH: QVQLVQSGAEVKKPGASVKVSCKASGNTFTGNYIHWIRQAPGQGLEWMGWLNPNSGGTNYAQQLQGRVTMTRDTSISTAYMELRRLRSDDTAVYYCARVEGLWFGKEWAFDIWGQGTMVTVSS VL: DIQMTQSPSSLSASVGDRVTITCQASQGVSNYLNWYQQKPGKALKLLIYDVSNLETGVPSRFSGSGSGTDFTFTISSLQPEDIATYYCQQYEFFGGGTKVEIK")
10.34

Moving on to the next binder.
Exercise: Entry g28v2-D46-4_CLK19 (antibody, V domains shown) VH: QVQLVQSGAEVKKPGAAVKVSCKASGYTFTDYYIHWVRQAPGQGLEWMGWINPTYGGTNYAQKFQDRVTMTRDTSISTTYMELRRLKSDETAVYYCTTVMADYRWPFDYWGQGTLVTVSS VL: DIQMTQSPSSLSASVGDRVTISCQASQDINNYLNWYQQKPGKAPKLLIYDTSNLGTGVPSRFSGSGSGTDFTFTISSLQPEDIGTYYCQQYDTFGPGTKVDIK : reported pKd = ?
Key: 9.97
